Test system: GST-tagged Cn
protocol: PEPperPRINT peptide microarray binding assay with GST-tagged Cn
assay_conditions: GST-tagged Cn, max over the chip locations
Description: We then estimated in-silico the binding strength of the various peptides to Cn by template-based docking followed by flexible backbone refinement using Modeller and PepCrawler (Figs 4 and S4). […] Fig 4 Medium-throughput filtering by structural modeling and microarray screening. […] (f) Scatter plot of the sequence likelihood (normalized by length, higher is better) against fluorescence level (higher is better, see Methods for details of the data analysis). […]
Binary call on Chip Fluorescence (max) with cut-off 0.2: strictly below means rule met, and equality or higher means rule not met.

A selection of reference data follows.
input_sequence	class
FSGNQPAIVVHTCEDP [SeqRBM_2445]	rule met
FAKHWPKLSDVSPVAH [SeqRBM_8299]	rule not met
TFNTNPQYTIQVVWPD [SeqRBM_7110]	rule met

Problem: Does the reported Chip Fluorescence (max) of the following sequence sit strictly below 0.2? TFHREPQNRLYVLSAV [SeqRBM_456]
Result: rule not met

Problem: Does the reported Chip Fluorescence (max) of the following sequence sit strictly below 0.2? EPEMSPSIFILKAHTT [SeqRBM_1051]
Result: rule met

Problem: Does the reported Chip Fluorescence (max) of the following sequence sit strictly below 0.2? KKMAPPCINIDFAPTN [SeqRBMlowT_322]
Result: rule met

Problem: Does the reported Chip Fluorescence (max) of the following sequence sit strictly below 0.2? GGPGTPGRQGQHLAPS [SeqRBMlowT_7794]
Result: rule not met

Problem: Does the reported Chip Fluorescence (max) of the following sequence sit strictly below 0.2? RTYINPFVTFVDGGNK [SeqRBMlowT_3664]
Result: rule not met

Problem: Does the reported Chip Fluorescence (max) of the following sequence sit strictly below 0.2? ADEAGPEIVITPTELP [SeqRBMlowT_3142]
Result: rule met
